B1: VENTX (parent)
chain: VFQHHQYLSPLERKRLAREMQLSE

Variants of: B1
PROTOCOL_NOTES: protein stability index of a GFP-peptide fusion (GPS, HEK-293T) (PSI 1-6); higher = more stable;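 also: lentivirally expressed fusions sorted by FACS into six bins by GFP to DsRed ratio, PSI derived from sequencing read proportions per bin multiplied by bin number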
DETAILS: c terminus: a fixed tail appended
Form field: protein stability index (one value per entry).
Lab note: write the figure by itself, no unit.

• VFQHHQYLGPLERKRLAREMQLSE [S9G] = 2.38
• VFQHHQYLSPLERKRLAREMDLSE [Q21D] = 3.61
• VFQHHQMLSPLERKRLAREMQLSE [Y7M] = 3.04
• VFQHHQYLSPLTRKRLAREMQLSE [E12T] = 2.08

Exercise: Reported protein stability index for VFQHHQYLSPLERKRLNREMQLSE [A17N] : what is it?
Solution: 2.38

Exercise: Query: protein stability index; subject: VFQHHQYSSPLERKRLAREMQLSE [L8S]
Solution: 2.09

Exercise: Name the recorded protein stability index for VFQHHQYLDPLERKRLAREMQLSE [S9D] .
Solution: 2.73

Exercise: Quick one: protein stability index for VFQHHQYLSPLERKRLAREMQLSM [E24M] ?
Solution: 2.39
